Target: T1, Hog Intrinsic Factor (Sus scrofa)
T1 construct: The source of the HIF sample used in the ELISAs is not described; also called HIF; Intrinsic Factor from Sus scrofa
T1 chain: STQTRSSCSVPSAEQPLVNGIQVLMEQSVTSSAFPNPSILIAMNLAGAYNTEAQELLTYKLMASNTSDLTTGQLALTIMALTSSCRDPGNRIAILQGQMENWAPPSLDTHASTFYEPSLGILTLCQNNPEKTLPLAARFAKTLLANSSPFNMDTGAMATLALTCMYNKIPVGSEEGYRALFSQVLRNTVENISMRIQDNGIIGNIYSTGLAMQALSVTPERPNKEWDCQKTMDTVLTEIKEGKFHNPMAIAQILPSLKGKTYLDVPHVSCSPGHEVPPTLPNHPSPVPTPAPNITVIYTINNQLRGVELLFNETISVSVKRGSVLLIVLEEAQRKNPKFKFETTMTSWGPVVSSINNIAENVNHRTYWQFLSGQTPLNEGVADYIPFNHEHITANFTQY
Test: ELISA, single point, hybridoma supernatant on plate coated with Hog Intrinsic Factor, OD 650 nm
Measurement label: binding result

1. 171J 5H12 monoclonal antibody (antibody, mouse IgG1, V domains shown, Mouse IgG1, kappa, from a hybridoma (immunogen partially purified native Hog R-protein)) VH: QVQLQQSGAELVKPGASVKISCKASGYAFSSSWMNWVKQRPGKGLEWIGQIYPGDGDTNYNGKFKDKATLTADKSSNTAYMQLSSLTSEDSAVYFCARVNWDAFSYIDVWGTGTTVTVSS VL: DIKMTQSPSSMYESLGERVTITCRASQDINVYLSWFQQKPGESPKTLIYRADRLVDGVPSRFSGSGSGQDYSLTISSLEYEDVGIYYCLQYDEFPYTFGGGTKLEIK ... no binding
2. 171J 9G7 monoclonal antibody (antibody, mouse IgG1, V domains shown, Mouse IgG1, kappa, from a hybridoma (immunogen partially purified native Hog R-protein)) VH: EVQLQQSGAELVKPGASVKLSCTGSGFNIEDIYIHWVKQRPEQGLEWIGRMDPANGDTVYASKFQGKATMTADTSSNTAYMQLSSLTSGDTAVYYCARVFDYWGQGTSLTVSS VL: DVVMTQTPLSLPVSLGDQASISCRSSQNLVHSNGYTYLHWYLQKPGQSPKLLIYKVSNRFSGVPDRFSGSGSGTDFTLKISRVEAEDLGVYFCSQNTHVPYTFGGGTKLEIK ... no binding
3. 171J 3F1 monoclonal antibody (antibody, mouse IgG1, V domains shown, Mouse IgG1, kappa, from a hybridoma (immunogen partially purified native Hog R-protein)) VH: EVQLQQSGPELLKPGVSVMISCRASGYTFTDYTMHWVKQSHGESLEWIGGIIPKSGTSNYNEKFKDKATLTVDKSSSTSYMELRSLTSEDSAVYYCARNYYDGGSYYFDYWGQGTTLTVSS VL: DIQMTQSPASLSASVGETVTITCRTSGNIHNFLTWFQQKQGKSPQLLVYSAETLADGVPSRFSGSGSGTQFSLRINSLQPEDFGSYFCQHFWNTPFTFGSGTKLEMK ... no binding
